- Organism: Rattus norvegicus
- protocol-description: DrugMatrix - Regimen: Daily Repeat
- Assay type: toxicity, organism-based, Sprague-Dawley
- Set-up: regimen Daily Repeat, gender Male, age 6-8 weeks
- particulars: in vivo, po, 0 mg/kg, 72 h, tissue Plasma, route oral GAVAGE, dose level Control, time 3 day, vehicle 100 % WATER
Each record is given condition met if its reported TOTAL PROTEIN is strictly below 6 G/DL. Records at or above 6 G/DL are given condition not met.

compound: O=C(O)c1cc(=O)c2c(OCC(O)COc3cccc4oc(C(=O)O)cc(=O)c34)cccc2o1 [CROMOLYN]
label-value: condition not met

compound: O=C(O)c1cccnc1 [NIACIN]
label-value: condition met

compound: CCN[C@@H](C)Cc1cccc(C(F)(F)F)c1 [DEXFENFLURAMINE]
label-value: condition not met

# TODO verify TOTAL PROTEIN < 6 G/DL strictly for this compound: "CCOC(N)=O" condition met

# TODO verify TOTAL PROTEIN < 6 G/DL strictly for this compound: Nc1ccc(S(=O)(=O)Nc2ncccn2)cc1 [SULFADIAZINE] condition not met

From: ChEMBL document CHEMBL3885881
